# STUDY_TARGET: Solute carrier family 2, facilitated glucose transporter member 1 (Homo sapiens)
# ASSAY_TEXT: ST_JUDE_LEISH: Cytotoxicity at 2uM final concentration against transgenic Leishmania Mexicana promastigotes LmGLUT1 that are glucose transport deficient and complemented with the human glucose transporter GLUT1. Activity is measured by DNA content using SYBR green in vitro
# Format: functional
REPORTED_ENDPOINT: inhibition
# number then unit; no other words

COMPOUND | REPORTED_ENDPOINT | RESULT
COc1ccc(CNCc2ccc(F)cc2)cc1-c1ccc(S(=O)(=O)NCCN2CCCC2)s1 | inhibition | 2.3%
O=C(NCCCN1CCC(N2CCCCC2)CC1)c1ccc2nc(N3CCCCC3)sc2c1 | inhibition | 5.78%
O=C(NCCCCN1CCC(c2ccc3c(c2OCc2ccncc2)CCCC3)CC1)c1ccc(NC(=O)c2ccc(Cl)cc2)cc1 | inhibition | 2.33%
Fc1cccc(COc2ccc(Nc3ncnc4sc(C#CC5CCCCN5)cc34)cc2Cl)c1 (stereo not drawn) | inhibition | 3.03%
COc1cc(-c2nc3c4ccccc4c4ccccc4c3[nH]2)cc(OC)c1OC | inhibition | 1.82%
COc1cc2ccccc2cc1CNCCCCCCNCc1cc2ccccc2cc1OC | inhibition | 5.18%
COc1ccc(CNc2ncc(-c3ccsc3)c(-c3nccs3)n2)cc1OC | inhibition | 0.9%
COc1ccc(NC(=O)Nc2ccc(C)c(-c3ccc(C(=O)NCCN4CCCC4)cc3)c2)cc1 | inhibition | -1.56%

Report inhibition for every entry below.
1. Cc1cccc(C)c1CNc1ccnc2cc(Br)ccc12
2. Cc1cc(C2CCN(CCCCNC(=O)c3ccc(-c4ccc(C(F)(F)F)cc4)cc3)CC2)c(C)cc1OCCOC1CCCCO1 (stereo not drawn)

1: 9.73%; 2: 1.45%

Report inhibition for every entry below.
1. Cc1cc2nc(-c3ccc(OCC(=O)NCc4ccc(C(C)(C)C)cc4)cc3)[nH]c2cc1C
2. COc1ccc2nc3cc(Cl)ccc3c(NCCCCN)c2c1

1: 6.86%; 2: 2.17%

Report inhibition for every entry below.
1. COc1cc(C(C)C)ccc1N1CCN(CCCCNC(=O)c2ccc(NC(=O)c3ccc(Cl)cc3)cc2)CC1
2. CN1CCN(c2ccnc3ccc(NC(=O)Nc4ccccc4Br)cc23)CC1
3. CC(C)(C)C1CCC(CC2=C(C(=O)O)c3ccccc3C2=O)CC1 (stereo not drawn)
4. Cc1ccc(NC(=O)c2ccnc(N3CCN(c4ccncc4)CC3)c2)cc1F
5. CCCCN1CCN(CCCNc2c3ccccc3nc3ccccc23)CC1
6. COc1cc(OC)c(OC)cc1C=NN=c1cc(C)[nH]c2ccccc12

4.1%
-3.53%
1.16%
3.18%
68%
1.25%
